Exercise: state measured growth for each of the compounds provided.
- Test system: SK-MEL-28 melanoma
- Assay Text: NCI-60 one-dose screen, 48 h (100 = growth as untreated, 0 = no growth, -100 = all killed)
- Condition Details: 10 µM unless noted
Compounds without any hit were thinned out: in the full panel of roughly 83,000, 20% have a hit.
Give bare numbers, in %.

cpd_smiles=Cc1ccc(-c2cc3nc(C(Cl)Cl)nc(-c4ccco4)n3n2)cc1 measured_on="SK-MEL-28 melanoma" meas_value=5.86
cpd_smiles=NS(=O)(=O)c1ccc(Nc2nc(Nc3ccccc3)nc3nnc(SCC(=O)NC4CCCCC4)n23)cc1 measured_on="SK-MEL-28 melanoma" meas_value=105

Respectfully, I request growth for each entry included below.
1. CC(=O)Nc1cccc(Nc2nc(N[C@@H](C)c3ccccc3)c3ccccc3n2)c1
2. CC1(C)[C@@H](O)CC[C@]2(C)[C@H]3CC[C@@H]4[C@H]5[C@H](C(=O)/C=C\c6ccc([N+](=O)[O-])cc6)CC[C@]5(O)CC[C@@]4(C)[C@]3(C)CC[C@@H]12

output:
42.3
46

Data credit: PubChem BioAssay (NCI)
